method: immunoblot of SLAMF7 level with TM4SF5 expression
experimentalConditions: glycan lost; control: WT SLAMF7, TM4SF5 co-expressed
experimentalEndpoint: expression_or_secretion

Example entries begin here.
SLAMF7: NQ#2 (protein) parent chain: MAGSPTCLTLIYILWQLTGSAASGPVKELVGSVGGAVTFPLKSKVKQVDSIVWTFNTTPLVTIQPEGGTIIVTQNRNRERVDFPDGGYSLKLSKLKKNDSGIYYVGIYSSSLQQPSTQEYVLHVYEHLSKPKVTMGLQSNKNGTCVTNLTCCMEHGEEDVIYTWKALGQAANESHNGSILPISWRWGESDMTFICVARNPVSRNFSSPILARKLCEGAADDPDSSMVLLCLLLVPLLLSLFVLGLFLWFLKRERQEEYIEEKKRVDICRETPNICPHSGENTEYDTIPHTNRTILKEDPANTVYSTVEIPKKMENPHSLLTMPDTPRLFAYENVI :: no change
SLAMF7: NQ#23456 (protein) parent chain: MAGSPTCLTLIYILWQLTGSAASGPVKELVGSVGGAVTFPLKSKVKQVDSIVWTFNTTPLVTIQPEGGTIIVTQNRNRERVDFPDGGYSLKLSKLKKNDSGIYYVGIYSSSLQQPSTQEYVLHVYEHLSKPKVTMGLQSNKNGTCVTNLTCCMEHGEEDVIYTWKALGQAANESHNGSILPISWRWGESDMTFICVARNPVSRNFSSPILARKLCEGAADDPDSSMVLLCLLLVPLLLSLFVLGLFLWFLKRERQEEYIEEKKRVDICRETPNICPHSGENTEYDTIPHTNRTILKEDPANTVYSTVEIPKKMENPHSLLTMPDTPRLFAYENVI :: increases
SLAMF7: NQ#2456 (protein) parent chain: MAGSPTCLTLIYILWQLTGSAASGPVKELVGSVGGAVTFPLKSKVKQVDSIVWTFNTTPLVTIQPEGGTIIVTQNRNRERVDFPDGGYSLKLSKLKKNDSGIYYVGIYSSSLQQPSTQEYVLHVYEHLSKPKVTMGLQSNKNGTCVTNLTCCMEHGEEDVIYTWKALGQAANESHNGSILPISWRWGESDMTFICVARNPVSRNFSSPILARKLCEGAADDPDSSMVLLCLLLVPLLLSLFVLGLFLWFLKRERQEEYIEEKKRVDICRETPNICPHSGENTEYDTIPHTNRTILKEDPANTVYSTVEIPKKMENPHSLLTMPDTPRLFAYENVI :: increases
SLAMF7: NQ#123 (protein) parent chain: MAGSPTCLTLIYILWQLTGSAASGPVKELVGSVGGAVTFPLKSKVKQVDSIVWTFNTTPLVTIQPEGGTIIVTQNRNRERVDFPDGGYSLKLSKLKKNDSGIYYVGIYSSSLQQPSTQEYVLHVYEHLSKPKVTMGLQSNKNGTCVTNLTCCMEHGEEDVIYTWKALGQAANESHNGSILPISWRWGESDMTFICVARNPVSRNFSSPILARKLCEGAADDPDSSMVLLCLLLVPLLLSLFVLGLFLWFLKRERQEEYIEEKKRVDICRETPNICPHSGENTEYDTIPHTNRTILKEDPANTVYSTVEIPKKMENPHSLLTMPDTPRLFAYENVI :: no change
SLAMF7: NQ#1456 (protein) parent chain: MAGSPTCLTLIYILWQLTGSAASGPVKELVGSVGGAVTFPLKSKVKQVDSIVWTFNTTPLVTIQPEGGTIIVTQNRNRERVDFPDGGYSLKLSKLKKNDSGIYYVGIYSSSLQQPSTQEYVLHVYEHLSKPKVTMGLQSNKNGTCVTNLTCCMEHGEEDVIYTWKALGQAANESHNGSILPISWRWGESDMTFICVARNPVSRNFSSPILARKLCEGAADDPDSSMVLLCLLLVPLLLSLFVLGLFLWFLKRERQEEYIEEKKRVDICRETPNICPHSGENTEYDTIPHTNRTILKEDPANTVYSTVEIPKKMENPHSLLTMPDTPRLFAYENVI :: increases

Lookup result for SLAMF7: NQ#3 (protein) parent chain: MAGSPTCLTLIYILWQLTGSAASGPVKELVGSVGGAVTFPLKSKVKQVDSIVWTFNTTPLVTIQPEGGTIIVTQNRNRERVDFPDGGYSLKLSKLKKNDSGIYYVGIYSSSLQQPSTQEYVLHVYEHLSKPKVTMGLQSNKNGTCVTNLTCCMEHGEEDVIYTWKALGQAANESHNGSILPISWRWGESDMTFICVARNPVSRNFSSPILARKLCEGAADDPDSSMVLLCLLLVPLLLSLFVLGLFLWFLKRERQEEYIEEKKRVDICRETPNICPHSGENTEYDTIPHTNRTILKEDPANTVYSTVEIPKKMENPHSLLTMPDTPRLFAYENVI ; measured expression_or_secretion: no change

Attribution: paper PMC11743776
